Record form. Attribute: Ki. Fill in for each entry.
- targetUnderTest: M3 (Homo sapiens, UniProt P20309)
- Sequence (P20309 whole entry): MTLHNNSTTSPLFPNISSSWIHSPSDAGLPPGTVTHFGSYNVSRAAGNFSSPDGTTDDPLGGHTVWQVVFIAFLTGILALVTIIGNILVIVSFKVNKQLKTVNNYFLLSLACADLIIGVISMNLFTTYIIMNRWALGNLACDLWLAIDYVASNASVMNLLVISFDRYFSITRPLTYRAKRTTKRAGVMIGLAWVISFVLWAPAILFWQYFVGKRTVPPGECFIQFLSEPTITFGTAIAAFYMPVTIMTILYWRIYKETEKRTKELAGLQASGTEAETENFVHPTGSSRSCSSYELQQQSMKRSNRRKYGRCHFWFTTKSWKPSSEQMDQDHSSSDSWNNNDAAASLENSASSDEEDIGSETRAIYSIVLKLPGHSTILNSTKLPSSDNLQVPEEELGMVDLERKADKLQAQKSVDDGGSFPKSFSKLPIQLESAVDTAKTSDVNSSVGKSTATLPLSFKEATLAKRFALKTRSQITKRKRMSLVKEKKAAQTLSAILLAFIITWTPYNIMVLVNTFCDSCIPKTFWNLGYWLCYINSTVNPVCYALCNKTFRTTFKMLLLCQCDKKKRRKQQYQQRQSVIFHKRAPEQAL
Numeric only. Scale: nM

Item COc1ccc(C(Cc2ccccc2)N2CCCCC2)cc1 (stereo not drawn) ; assay system M3 (Homo sapiens, UniProt P20309); Ki reported as 2400

Summary: COc1cccc(C(Cc2ccccc2)N2CCCCC2)c1 (stereo not drawn) , M3 (Homo sapiens, UniProt P20309), Ki = 2300

The value of Ki recorded for Clc1ccccc1C(Cc1ccccc1)N1CCCCC1 (stereo not drawn) when tested on M3 (Homo sapiens, UniProt P20309) reads 615

====

- targetUnderTest: UniProtKB Q01959
- Sequence (Q01959 whole entry): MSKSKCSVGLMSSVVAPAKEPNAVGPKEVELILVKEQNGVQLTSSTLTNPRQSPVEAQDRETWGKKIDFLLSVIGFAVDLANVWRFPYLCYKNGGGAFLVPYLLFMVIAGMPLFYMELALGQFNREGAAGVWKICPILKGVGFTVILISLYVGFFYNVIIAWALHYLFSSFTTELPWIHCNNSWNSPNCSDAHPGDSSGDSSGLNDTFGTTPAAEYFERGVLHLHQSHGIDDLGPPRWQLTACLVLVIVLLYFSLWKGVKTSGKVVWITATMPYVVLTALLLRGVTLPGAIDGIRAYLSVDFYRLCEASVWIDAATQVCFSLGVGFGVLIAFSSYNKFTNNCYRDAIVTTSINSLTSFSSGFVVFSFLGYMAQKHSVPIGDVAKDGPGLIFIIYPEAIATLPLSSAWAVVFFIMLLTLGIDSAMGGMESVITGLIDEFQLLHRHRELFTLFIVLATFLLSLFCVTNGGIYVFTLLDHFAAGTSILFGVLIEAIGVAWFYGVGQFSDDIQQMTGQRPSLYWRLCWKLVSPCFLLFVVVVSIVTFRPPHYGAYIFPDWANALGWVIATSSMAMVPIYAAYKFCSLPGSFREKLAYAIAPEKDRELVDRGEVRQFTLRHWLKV
Mark yes (1) only when Ki stays strictly below 200 nM. Values equal to the cut-off are no (0).

Exam item: Decide: Ki of COc1ccccc1C(Cc1ccccc1)N1CCCCC1 (centres unmarked) strictly below 200 nM?
Marked response: no (0)

Exam item: I wonder whether COc1cccc(C(Cc2ccccc2)N2CCCCC2)c1 (centres unmarked) has Ki below 200 nM. Can you tell?
Marked response: yes (1)

Exam item: Just wondering, is Ki of c1ccc(CC(c2ccccc2)N2CCCCC2)cc1 (centres unmarked) below 200 nM?
Marked response: no (0)

Exam item: Consider the compound Clc1ccccc1C(Cc1ccccc1)N1CCCCC1 (centres unmarked) . Is its Ki strictly less than 200 nM?
Marked response: no (0)

Exam item: For COc1ccc(C(Cc2ccccc2)N2CCCCC2)cc1 (centres unmarked) , is the recorded Ki below the cut-off of 200 nM?
Marked response: yes (1)

This collection of values is drawn from paper PMC4912077.
